Data provenance is patent US20250263489A1.

TARGET_SYSTEM: IGF-1 receptor on the cells of the PathHunter IGF1R Functional Assay (DiscoverX) (UniProt P08069 31-1367)
Sequence (P08069 31-1367): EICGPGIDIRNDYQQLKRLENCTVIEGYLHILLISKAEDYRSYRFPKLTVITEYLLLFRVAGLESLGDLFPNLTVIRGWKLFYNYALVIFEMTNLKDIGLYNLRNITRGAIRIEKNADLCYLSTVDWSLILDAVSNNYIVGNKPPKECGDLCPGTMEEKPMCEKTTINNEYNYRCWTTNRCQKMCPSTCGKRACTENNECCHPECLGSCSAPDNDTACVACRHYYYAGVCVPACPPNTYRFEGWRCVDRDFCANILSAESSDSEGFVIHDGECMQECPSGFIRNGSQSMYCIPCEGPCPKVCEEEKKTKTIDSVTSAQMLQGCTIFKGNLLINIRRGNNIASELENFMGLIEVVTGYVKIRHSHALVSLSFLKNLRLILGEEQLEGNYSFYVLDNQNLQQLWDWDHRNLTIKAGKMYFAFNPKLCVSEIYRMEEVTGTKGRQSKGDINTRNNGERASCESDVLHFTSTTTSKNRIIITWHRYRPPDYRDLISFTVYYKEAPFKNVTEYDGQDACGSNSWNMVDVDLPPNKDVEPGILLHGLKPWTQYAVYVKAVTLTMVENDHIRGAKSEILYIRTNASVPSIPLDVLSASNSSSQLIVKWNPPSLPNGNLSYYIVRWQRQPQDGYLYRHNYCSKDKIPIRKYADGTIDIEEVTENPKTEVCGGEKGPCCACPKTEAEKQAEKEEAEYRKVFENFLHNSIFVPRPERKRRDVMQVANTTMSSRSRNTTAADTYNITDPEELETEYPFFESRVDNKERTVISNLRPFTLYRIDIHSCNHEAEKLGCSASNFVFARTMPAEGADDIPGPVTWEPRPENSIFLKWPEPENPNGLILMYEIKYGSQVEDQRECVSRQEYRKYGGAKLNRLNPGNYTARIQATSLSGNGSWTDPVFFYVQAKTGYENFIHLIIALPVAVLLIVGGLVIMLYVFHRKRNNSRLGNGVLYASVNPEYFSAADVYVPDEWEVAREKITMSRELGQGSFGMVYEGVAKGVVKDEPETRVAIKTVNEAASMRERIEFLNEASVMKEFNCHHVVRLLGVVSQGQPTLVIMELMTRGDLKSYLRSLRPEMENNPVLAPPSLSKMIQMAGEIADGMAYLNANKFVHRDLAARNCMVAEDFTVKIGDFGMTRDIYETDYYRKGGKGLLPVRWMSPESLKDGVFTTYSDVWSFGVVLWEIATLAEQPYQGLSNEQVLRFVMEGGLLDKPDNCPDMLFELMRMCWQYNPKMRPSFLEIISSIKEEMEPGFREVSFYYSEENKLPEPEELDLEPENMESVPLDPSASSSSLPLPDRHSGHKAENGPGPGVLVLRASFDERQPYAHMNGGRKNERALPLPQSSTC
ASSAY_PROCEDURE: cell-based or functional assay
Measured Fluorescence intensity (0.1 nM) (RLU), PathHunter by item
Write the answer as a number in RLU, unit excluded.

Please review the following examples before continuing.
BINDER: FW1_var14 antibody (antibody, V domains shown) VH: QVQLVQSGAEVKKPGASVKVSCKASGYTFTSYWMHWVRQAPGQGLEWMGETNPSNSVTNYAQKFQGRVTLTVDTSTSTAYMELSSLRSEDTATYYCTIGRGRGFAYWGQGTLVTVSS VL: DIQMTQSPSSVSASVGDRVTITCRASQNINFWLSWYQQKPGKAPRLLIYKASNLHTGVPSRFSGSGSGTDFTLTISSLQPEDFATYYCLQGQSYPYTFGGGTKLEIK
UNIT_SYMBOL: RLU
RESULT: 558
--
BINDER: FW1_var1 antibody (antibody, V domains shown) VH: QVQLVQSGAEVKKPGASVKVSCKASGYTFTSYWMHWVRQAPGQGLEWMGETNPSNSVTNYAQKFQGRVTLTVDTSTSTAYMELSSLRSEDTAVYYCTIGRGRGFAYWGQGTLVTVSS VL: DIQMTQSPSSVSASVGDRVTITCRASQNINFWLSWCQQKPGKIPKLLIYKASNLHTGVPSRFSGSGSGTDFTLTISSLQPEDFATYYCLQGQSYPYTFGGGTKLEIK
UNIT_SYMBOL: RLU
RESULT: 555
--
BINDER: FW1_var10 antibody (antibody, V domains shown) VH: QVQLVQSGAEVKKPGASVKVSCKASGYTFTSYWMHWVRQAPGQGLEWMGETNPSNSVTNYAQKFQGRVTLTVDTSTSTAYMELSSLRSEDTATYYCTIGRGRGFAYWGQGTLVTVSS VL: DIQMTQSPSSVSASVGDRVTITCRASQNINFWLSWYQQKPGKAPKLLIYKASNLHTGVPSRFSGSGSGTDFTLTISSLQPEDFATYYCLQGQSYPYTFGGGTKLEIK
UNIT_SYMBOL: RLU
RESULT: 516
--
BINDER: FW2_var2 antibody (antibody, V domains shown) VH: QVQLVQSGAEVKKPGSSVKVSCKASGYTFTSYWMHWVRQAPGQGLEWMGETNPSNSVTNYAQKFQGRVTLTVDKSTSTAYMELSSLRSEDTAVYYCTIGRGRGFAYWGQGTLVTVSS VL: DIQMTQSPSSLSASVGDRVTITCRASQNINFWLSWYQQKPGKIPKLLIYKASNLHTGVPSRFSGSGSGTDFTLTISSLQPEDVATYYCLQGQSYPYTFGGGTKLEIK
UNIT_SYMBOL: RLU
RESULT: 572
--
BINDER: FW1_var9 antibody (antibody, V domains shown) VH: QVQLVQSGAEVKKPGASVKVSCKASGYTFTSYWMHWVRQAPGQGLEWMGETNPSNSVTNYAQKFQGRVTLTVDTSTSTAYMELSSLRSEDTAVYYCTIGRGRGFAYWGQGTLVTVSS VL: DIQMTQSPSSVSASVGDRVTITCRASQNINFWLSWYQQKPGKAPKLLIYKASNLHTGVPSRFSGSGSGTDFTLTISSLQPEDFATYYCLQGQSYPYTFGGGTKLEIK
UNIT_SYMBOL: RLU
RESULT: 591

Reported Fluorescence intensity (0.1 nM) (RLU), PathHunter ( mouse parent antibody IGF11-16 (antibody, mouse IgG1, kappa, V domains shown) VH: QIQLQQPGAELVKPGASVKLSCKAPGYTFTSYWMHWVKQRPGQGLEWIGETNPSNSVTNYNEKFKSKATLTVDKSSSTAYMQLSSLTSEDSAVYYCTIGRGRGFAYWGQGTLVTVSA VL: DIQMNQSPSSLSASLGDTITITCRASQNINFWLSWCQQKPGNIPKLLIYKASNLHTGVPSRFSGSGSGTDFTLTISSLQPEDIATYYCLQGQSYPYTFGGGTKLEIKR ) = 557
